- MEASUREMENT TARGET: Histone acetyltransferase KAT2B (Homo sapiens)
- Sequence (Q92831 whole entry, looked up, the tested form may be a part): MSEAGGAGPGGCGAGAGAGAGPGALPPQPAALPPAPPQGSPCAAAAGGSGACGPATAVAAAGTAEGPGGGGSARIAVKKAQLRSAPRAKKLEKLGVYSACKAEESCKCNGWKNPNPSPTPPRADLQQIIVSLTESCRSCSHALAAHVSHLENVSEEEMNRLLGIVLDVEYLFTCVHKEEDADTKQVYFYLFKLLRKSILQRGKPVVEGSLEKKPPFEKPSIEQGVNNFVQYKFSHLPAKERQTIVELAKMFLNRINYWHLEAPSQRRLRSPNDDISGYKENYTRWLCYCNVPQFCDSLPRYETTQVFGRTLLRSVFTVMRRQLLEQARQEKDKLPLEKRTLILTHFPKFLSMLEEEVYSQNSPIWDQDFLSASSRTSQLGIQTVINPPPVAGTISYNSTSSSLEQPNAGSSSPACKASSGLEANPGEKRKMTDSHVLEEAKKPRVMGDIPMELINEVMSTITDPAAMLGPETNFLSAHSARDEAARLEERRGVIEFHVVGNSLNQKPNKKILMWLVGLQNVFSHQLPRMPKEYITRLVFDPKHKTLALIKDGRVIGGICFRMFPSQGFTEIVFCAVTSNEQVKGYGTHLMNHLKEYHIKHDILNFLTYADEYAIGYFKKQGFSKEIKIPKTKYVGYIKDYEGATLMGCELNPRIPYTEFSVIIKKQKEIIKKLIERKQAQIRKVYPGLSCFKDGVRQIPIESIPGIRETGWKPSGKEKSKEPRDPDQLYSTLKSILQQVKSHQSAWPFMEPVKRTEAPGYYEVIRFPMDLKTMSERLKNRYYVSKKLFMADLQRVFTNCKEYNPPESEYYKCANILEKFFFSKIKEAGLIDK
- EXPERIMENT SUMMARY: Inhibition of human recombinant N-terminal His-tagged PCAF histone acetyltransferase catalytic domain expressed in Escherichia coli BL21 D3 using biotinylated histone H3 as substrate at 50 uM after 10 mins by TR-FRET analysis relative to control
Please note: class 1 applies when inhibition is 9% or greater, and class 0 applies otherwise.

Example results:
• O=C(O)CCCCCN1C(=O)/C(=C2/C(=O)N(Cc3ccccc3)c3ccccc32)SC1=S = class 1
• CN1C(=O)/C(=C2\SC(=S)N(CCCCCC(=O)O)C2=O)c2ccccc21 = class 0
• CCCCCCOc1ccc(/C=C2\SC(=S)N(CCCC(=O)O)C2=O)cc1 = class 0
• O=C(O)CCCCCN1C(=O)/C(=C/c2ccc(-c3ccccc3)cc2)SC1=S = class 0
• CN(C)c1ccc(/C=C2\SC(=S)N(CCCCCC(=O)O)C2=O)cc1 = class 0
• CC1=C/C(=N/Nc2ccnc3cc(Cl)ccc23)CC1 = class 1
• COC(=O)CCN1C(=O)/C(=C/c2cc(OC)ccc2OC)SC1=S = class 0
• COc1ccc(/C=C2\SC(=S)N(CCCCCC(=O)O)C2=O)cc1Br = class 0

Task: Given the entry `COC(=O)CCCCCN1C(=O)/C(=C/c2ccc(C)cc2)SC1=S` , answer whether its inhibition meets or surpasses 9%.
Result: class 1

Task: For this compound, is measured inhibition 9% or higher? `O=C1Nc2ccccc2/C1=C1/SC(=S)N(CCS(=O)(=O)O)C1=O`
Result: class 0
